# Test system: CEM cells HIV-1 protection, formazan growth assay
# Assay comment: NCI AIDS Antiviral Assay
# Experimental setup: measured here: growth of uninfected CEM cells
# Method: The ability of compounds to protect human CEM cells from HIV-1 infection is measured as a screen for new compounds capable of inhibiting the HIV virus. Five concentrations of drug were tested on uninfected and infected cells and cell growth was measured using a soluble formazan assay. […] Compounds that provided at least 50% protection were retested. Compounds that provided at least 50% protection on retest were listed as moderately active. […]
Where a SMILES comes first, the peptide text is derived from it. [ ]: non-standard residue; d: D form. The star is where a group is joined. ONb = O=[N+]([O-])c1ccc(CO*)cc1; AllylGly = C=CC[CH](N)C(=O)O; Boc = CC(C)(C)OC(=O)*
Readout type: pIC50
pIC50 field: float, defined as -log10 of concentration (mol/L).

Annotate the compound CSc1n[nH]c2c1c(C)nn2-c1ccccc1 with its measured pIC50.
4.02

Annotate the compound C=CCC(NC(=O)OC(C)(C)C)C(=O)NC(CCC(=O)OCc1ccc([N+](=O)[O-])cc1)C(N)=O (stereo not drawn) (Boc-[AllylGly]-Glu(ONb)-NH2; configuration not given here) with its measured pIC50.
3.99
